tested-target: Human VPS34 (Homo sapiens (Human), UniProt Q8NEB9)
Sequence (Q8NEB9 whole entry): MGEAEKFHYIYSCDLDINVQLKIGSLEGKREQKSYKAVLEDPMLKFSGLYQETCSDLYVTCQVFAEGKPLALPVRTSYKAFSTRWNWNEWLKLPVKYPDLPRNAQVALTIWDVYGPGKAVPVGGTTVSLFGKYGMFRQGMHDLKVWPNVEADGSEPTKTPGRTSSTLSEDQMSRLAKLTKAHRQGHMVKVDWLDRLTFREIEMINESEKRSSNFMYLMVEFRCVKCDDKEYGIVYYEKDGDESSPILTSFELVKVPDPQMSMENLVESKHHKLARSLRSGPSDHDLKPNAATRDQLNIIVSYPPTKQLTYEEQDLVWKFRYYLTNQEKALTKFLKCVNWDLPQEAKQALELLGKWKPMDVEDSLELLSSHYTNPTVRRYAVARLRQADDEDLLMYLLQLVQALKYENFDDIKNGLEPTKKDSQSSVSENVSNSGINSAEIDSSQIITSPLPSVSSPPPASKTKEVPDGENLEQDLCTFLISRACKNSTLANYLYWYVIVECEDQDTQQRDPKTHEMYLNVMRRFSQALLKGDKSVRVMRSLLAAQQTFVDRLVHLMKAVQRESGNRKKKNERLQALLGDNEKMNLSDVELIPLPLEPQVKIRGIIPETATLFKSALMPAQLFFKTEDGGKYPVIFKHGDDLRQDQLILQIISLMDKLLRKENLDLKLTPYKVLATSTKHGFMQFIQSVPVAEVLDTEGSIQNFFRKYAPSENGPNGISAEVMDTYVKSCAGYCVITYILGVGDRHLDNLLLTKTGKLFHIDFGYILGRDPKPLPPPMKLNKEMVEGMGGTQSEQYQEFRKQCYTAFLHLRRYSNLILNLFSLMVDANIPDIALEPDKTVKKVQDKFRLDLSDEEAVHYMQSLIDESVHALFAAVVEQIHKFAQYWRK
experimental-protocol: Human VPS34 enzyme assay (Adapta TR-FRET)
Type: biochemical
test-conditions: compound concentration 1.11 μM; read-out: Percent Inhibition
This listing pairs molecules with measured inhibition at 1.11 µM.

| smiles-input | observed-value |
| --- | --- |
| CC(=O)Nc1cc(-c2cnc(Cl)c(NS(=O)(=O)c3ccccc3)c2)c(C)cn1 | > 99% |

The reported inhibition at 1.11 µM of the molecule CC(=O)Nc1cc(-c2cnc(N)c(S(=O)(=O)Cc3ccc(F)cc3F)c2)ccn1 was > 99%

Form field inhibition at 1.11 µM, entry CC(=O)Nc1cc(-c2cnc(N)c(C(=O)NCC3CC3)c2)ccn1 : > 99%
